pIC50: −log10 of the molar value.
Assay read-out pIC50 on F1F0-ATPase (Bos taurus); records merged from the literature.

structure.notation: CCOC(=O)Nc1cccc(N/C(=N\C(=O)c2ccc(F)c(F)c2)NCc2ccc(Cl)cc2F)n1
pIC50: > 5.00

The measured pIC50 that `CC(C)CN/C(=N/C(=O)c1ccc(F)c(F)c1)Nc1n[nH]c2ncccc12` showed for F1F0-ATPase (Bos taurus) is < 4.80

pIC50 for F1F0-ATPase (Bos taurus) with input `O=C(/N=C(/Nc1cc(F)cc(Cl)c1)N[C@H]1CC[C@@H](Nc2ncccn2)CC1)c1ccc(F)c(F)c1` equals > 5.00

pIC50 for F1F0-ATPase (Bos taurus) with input `CC(C)(C)N/C(=N/C(=O)c1ccnc(N2CCCC2)c1)Nc1cc(-c2ccc(F)cc2)n[nH]1` equals > 5.00
